- Assayed target: UniProtKB P00533
- Assay procedure: In vitro inhibition of EGFR, Flash Plate or glass-fiber filter technology (C2)
- Assay type: biochemical
- Design: 0.5 μg EGFR-kinase domain/well
- Experimental context: EGFR-kinase domain, 5.0 μM unlabeled ATP, read-out: Kinase activity.(C2): pIC50 (converted)
- Sequence (P00533 712-979 limits assumed): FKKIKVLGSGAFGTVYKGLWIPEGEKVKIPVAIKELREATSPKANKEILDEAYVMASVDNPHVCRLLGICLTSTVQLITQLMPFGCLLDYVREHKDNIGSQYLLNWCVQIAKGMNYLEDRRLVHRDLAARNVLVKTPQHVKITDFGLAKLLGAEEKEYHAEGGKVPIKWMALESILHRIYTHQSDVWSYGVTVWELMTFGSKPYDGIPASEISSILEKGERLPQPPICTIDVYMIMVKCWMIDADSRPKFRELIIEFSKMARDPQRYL
Could you please mark met for values of IC50 below 200 nM and not met for values at or above it?

>  <Compound>
COc1cc2ncnc3c2cc1OCCNC(=O)CN(C)Cc1ccc(Cl)cc1N3

>  <Qualitative label>
met

$$$$
>  <Compound>
COc1cc2ncnc3c2cc1OCCCCCCNC(=O)c1ccc(Cl)cc1N3

>  <Qualitative label>
met

$$$$
>  <Compound>
COc1cc2ncnc3c2cc1OCC(=O)NC(C(C)C)C(=O)NCc1ccc(Cl)cc1N3 (stereo not drawn)

>  <Qualitative label>
not met

$$$$
>  <Compound>
Brc1ccc2c(c1)Nc1ncnc3ccc(cc13)OCCCCCCO2

>  <Qualitative label>
met

$$$$
>  <Compound>
COc1cc2ncnc3c2cc1OCC(=O)NC(Cc1ccccc1)C(=O)NCc1ccc(Cl)cc1N3 (stereo not drawn)

>  <Qualitative label>
not met

$$$$
>  <Compound>
COc1cc2ncnc3c2cc1OCCCCCOCCc1ccc(Cl)cc1N3

>  <Qualitative label>
met

$$$$
>  <Compound>
COc1cc2ncnc3c2cc1OCCCCCOc1ccc(Cl)cc1N3

>  <Qualitative label>
met

$$$$
>  <Compound>
COc1cc2ncnc3c2cc1OCCCNC(=O)C(CC(C)C)NC(=O)Cc1ccc(Cl)cc1N3 (stereo not drawn)

>  <Qualitative label>
met

$$$$
>  <Compound>
COc1cc2ncnc3c2cc1OCC1CCCN(CC(=O)NCCCc2ccc(Cl)cc2N3)C1 (stereo not drawn)

>  <Qualitative label>
not met

$$$$

----------
- Assayed target: EGFR (Homo sapiens, UniProt P00533)
- Assay procedure: ELISA assay of EGFR tyrosine kinase activity (C4)
- Format: biochemical
- Experimental context: poly(Glu, Tyr) coated plate, 5 μM ATP, room temperature 10 min
- Sequence (P00533 25-1210): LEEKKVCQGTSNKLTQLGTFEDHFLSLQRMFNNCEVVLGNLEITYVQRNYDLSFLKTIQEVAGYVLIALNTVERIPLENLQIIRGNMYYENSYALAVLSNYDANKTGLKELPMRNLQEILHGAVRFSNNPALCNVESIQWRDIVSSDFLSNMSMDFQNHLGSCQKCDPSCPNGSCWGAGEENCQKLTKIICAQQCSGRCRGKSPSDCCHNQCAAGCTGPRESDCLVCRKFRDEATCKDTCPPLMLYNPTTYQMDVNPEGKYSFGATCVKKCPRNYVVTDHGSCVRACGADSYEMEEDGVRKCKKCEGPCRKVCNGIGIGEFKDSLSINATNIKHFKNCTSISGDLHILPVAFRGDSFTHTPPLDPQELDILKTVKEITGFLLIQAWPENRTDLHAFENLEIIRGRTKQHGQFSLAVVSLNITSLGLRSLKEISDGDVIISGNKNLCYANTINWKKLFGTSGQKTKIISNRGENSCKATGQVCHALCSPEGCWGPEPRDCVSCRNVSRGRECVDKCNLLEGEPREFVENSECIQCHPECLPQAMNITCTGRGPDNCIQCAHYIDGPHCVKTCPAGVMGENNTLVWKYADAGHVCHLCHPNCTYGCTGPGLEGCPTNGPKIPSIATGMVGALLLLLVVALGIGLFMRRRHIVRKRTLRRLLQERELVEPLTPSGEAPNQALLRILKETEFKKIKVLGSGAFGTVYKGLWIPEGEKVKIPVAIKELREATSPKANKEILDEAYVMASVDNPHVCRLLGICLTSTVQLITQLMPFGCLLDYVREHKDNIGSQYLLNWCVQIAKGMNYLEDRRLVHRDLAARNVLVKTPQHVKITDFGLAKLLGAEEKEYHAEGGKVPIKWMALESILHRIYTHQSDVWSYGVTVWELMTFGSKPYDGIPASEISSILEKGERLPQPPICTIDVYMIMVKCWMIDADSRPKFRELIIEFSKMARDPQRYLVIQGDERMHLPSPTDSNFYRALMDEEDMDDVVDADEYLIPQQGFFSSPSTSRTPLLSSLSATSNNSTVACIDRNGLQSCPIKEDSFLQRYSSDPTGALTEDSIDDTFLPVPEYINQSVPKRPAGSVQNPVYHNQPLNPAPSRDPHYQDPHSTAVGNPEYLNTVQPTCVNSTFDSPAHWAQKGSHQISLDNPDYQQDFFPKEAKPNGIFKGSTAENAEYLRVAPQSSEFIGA
pIC50: −log10 of the molar value.
The entries below are paired with their reported pIC50.

>  <Record smiles>
COc1cc2ncnc3c2cc1OCCCCCCOc1c(Cl)cccc1N3

>  <pIC50>
< 6.00

$$$$
>  <Record smiles>
Oc1cc2ncnc3c2cc1OCCCCCCOc1ccc(Br)cc1N3

>  <pIC50>
< 6.00

$$$$
>  <Record smiles>
COc1cc2ncnc3c2cc1OCCCCCCOc1ccccc1N3

>  <pIC50>
< 6.00

$$$$
>  <Record smiles>
COc1cc2ncnc3c2cc1OCCCCCCOc1ccc(Cl)cc1N3

>  <pIC50>
< 6.00

$$$$
>  <Record smiles>
COc1cc2ncnc3c2cc1OCCCCCN(C)Cc1ccc(Br)cc1N3

>  <pIC50>
7.42

$$$$
>  <Record smiles>
COc1cc2ncnc3c2cc1OCCCCCCOc1ccc(C(=O)O)cc1N3

>  <pIC50>
< 6.00

$$$$
>  <Record smiles>
COc1cc2ncnc3c2cc1OCCCCCCOc1ccc(C#N)cc1N3

>  <pIC50>
< 6.00

$$$$
>  <Record smiles>
COc1cc2ncnc3c2cc1OCCCCCCCCCOc1ccc(Cl)cc1N3

>  <pIC50>
< 6.00

$$$$
>  <Record smiles>
COc1cc2ncnc3c2cc1OCCCCCCCc1ccc(Br)cc1N3

>  <pIC50>
6.80

$$$$
>  <Record smiles>
Brc1ccc2c(c1)Nc1ncnc3cc(OCCCN4CCOCC4)c(cc13)OCCCCCCO2

>  <pIC50>
6.57

$$$$

----------
- Assayed target: EGFR (Homo sapiens)
- Assay procedure: In vitro inhibition of EGFR, Flash Plate or glass-fiber filter technology (C2)
- Type: biochemical
- Parameters: 0.5 μg EGFR-kinase domain/well
- Experimental context: EGFR-kinase domain, 5.0 μM unlabeled ATP, read-out: Kinase activity.(C2): pIC50 (converted)
Each entry below lists one item and its recorded IC50 value.

>  <Compound>
COc1cc2ncnc3c2cc1OCCCCCCOc1ccc(C(=O)N2CCCC2)cc1N3 [Compound 12]

>  <Result comparator>
>

>  <IC50 / µM>
10

$$$$
>  <Compound>
COc1cc2ncnc3c2cc1OCCCNC(=O)CCNCc1ccc(Cl)cc1N3 [Compound 70]

>  <Result comparator>
=

>  <IC50 / µM>
0.01

$$$$
>  <Compound>
COc1cc2ncnc3c2cc1OCC(=O)NC(C(C)O)C(=O)NCCc1ccc(Cl)cc1N3 (centres unmarked) [Compound 142]

>  <Result comparator>
=

>  <IC50 / µM>
0.1

$$$$
>  <Compound>
COc1cc2ncnc3c2cc1OCCCC(=O)NCCCc1ccc(Cl)cc1N3 [Compound 40]

>  <Result comparator>
=

>  <IC50 / µM>
0.0316

$$$$
>  <Compound>
COc1cc2ncnc3c2cc1OCCCCCCCc1ccc(Br)cc1N3 [Compound 21]

>  <Result comparator>
=

>  <IC50 / µM>
0.01

$$$$

----------
Collected IC50 values appear next to each entry.
- Assayed target: EGFR (Homo sapiens)
- Assay procedure: In vitro inhibition of EGFR, Flash Plate or glass-fiber filter technology (C2)
- Type: biochemical
- Design: 0.5 μg EGFR-kinase domain/well
- Experimental context: EGFR-kinase domain, 5.0 μM unlabeled ATP, read-out: Kinase activity.(C2): pIC50 (converted)
Attribute measured: IC50

>  <Compound>
COc1cc2ncnc3c2cc1OC(=O)CCCCCOc1c(C)cccc1N3

>  <Val>
> 10000 nM

$$$$
>  <Compound>
COc1cc2ncnc3c2cc1OCCCCNCCc1ccc(Cl)cc1N3

>  <Val>
3.98 nM

$$$$
>  <Compound>
COc1cc2ncnc3c2cc1OCCCCNCCN(C)Cc1ccc(Cl)cc1N3

>  <Val>
6.31 nM

$$$$
>  <Compound>
COc1cc2ncnc3c2cc1OCCN(C(=O)CNCCc1ccncc1)CC(=O)NCCCc1ccc(Cl)cc1N3

>  <Val>
200 nM

$$$$
>  <Compound>
COc1cc2ncnc3c2cc1OCCNC(=O)C1CCCN1Cc1cc(F)c(Cl)cc1N3 (centres unmarked)

>  <Val>
31.6 nM

$$$$
>  <Compound>
COc1cc2ncnc3c2cc1OCCNC(=O)C(C)(C)NC(=O)Cc1ccc(Cl)cc1N3

>  <Val>
12.6 nM

$$$$
>  <Compound>
COc1cc2ncnc3c2cc1OCC(=O)N1CCCC1C(=O)NCc1ccccc1N3 (centres unmarked)

>  <Val>
7940 nM

$$$$
>  <Compound>
COc1cc2ncnc3c2cc1OCC(=O)NC(C)C(=O)NCc1ccc(Cl)cc1N3 (centres unmarked)

>  <Val>
2000 nM

$$$$

----------
- Assayed target: EGFR (Homo sapiens)
- Assay procedure: In vitro inhibition of EGFR, Flash Plate or glass-fiber filter technology (C2)
- Type: biochemical
- Design: 0.5 μg EGFR-kinase domain/well
- Experimental context: EGFR-kinase domain, 5.0 μM unlabeled ATP, read-out: Kinase activity.(C2): pIC50 (converted)
The following compounds are shown together with reported IC50 values.

>  <Compound>
COc1cc2ncnc3c2cc1OCCCNC(=O)C1CCC(=O)N1Cc1ccc(Cl)cc1N3 (centres unmarked)

>  <Assayed target>
EGFR (Homo sapiens)

>  <Measure unit>
nM

>  <Result comparator>
=

>  <IC50>
25.1

$$$$
>  <Compound>
COc1cc2ncnc3c2cc1OCCN(C)CC(=O)NCCCc1ccc(Cl)cc1N3

>  <Assayed target>
EGFR (Homo sapiens)

>  <Measure unit>
nM

>  <Result comparator>
=

>  <IC50>
79.4

$$$$
>  <Compound>
COc1cc2ncnc3c2cc1OCCCCCCOc1ccc(C(=O)O)cc1N3

>  <Assayed target>
EGFR (Homo sapiens)

>  <Measure unit>
nM

>  <Result comparator>
>

>  <IC50>
10000

$$$$
>  <Compound>
COc1cc2ncnc3c2cc1OCCCCCCCOc1ccc(Cl)cc1N3

>  <Assayed target>
EGFR (Homo sapiens)

>  <Measure unit>
nM

>  <Result comparator>
=

>  <IC50>
79.4

$$$$
>  <Compound>
COc1cc2ncnc3c2cc1OCCCCCCOc1ccccc1N3

>  <Assayed target>
EGFR (Homo sapiens)

>  <Measure unit>
nM

>  <Result comparator>
=

>  <IC50>
398

$$$$

----------
- Assayed target: EGFR (Homo sapiens, UniProt P00533)
- Assay procedure: In vitro inhibition of EGFR, Flash Plate or glass-fiber filter technology (C2)
- Format: biochemical
- Design: 0.5 μg EGFR-kinase domain/well
- Experimental context: EGFR-kinase domain, 5.0 μM unlabeled ATP, read-out: Kinase activity.(C2): pIC50 (converted)
Attribute measured: IC50 (µM)

>  <Compound>
COc1cc2ncnc3c2cc1OCCN(CCN1CCOCC1)CCCOc1ccc(Cl)cc1N3

>  <Val>
0.0251

$$$$
>  <Compound>
COc1cc2ncnc3c2cc1OCCCC(=O)NC(C)(C)C(=O)NCc1ccc(Cl)cc1N3

>  <Val>
0.158

$$$$
>  <Compound>
COc1cc2ncnc3c2cc1OCC(=O)NC(CO)C(=O)NCc1ccc(Cl)cc1N3 (stereo not shown)

>  <Val>
1.58

$$$$
>  <Compound>
COc1cc2ncnc3c2cc1OCC(=O)NC(C)(C)C(=O)NCCc1ccc(Cl)cc1N3

>  <Val>
3.98

$$$$
>  <Compound>
COc1cc2ncnc3c2cc1OCCC1CCN(CC1)CC(=O)NCCCc1ccc(Cl)cc1N3

>  <Val>
2

$$$$
>  <Compound>
COc1cc2ncnc3c2cc1OCCCCCCOc1cc(NC(=O)c2ccc(F)cc2)ccc1N3

>  <Val>
1

$$$$
>  <Compound>
COc1cc2ncnc3c2cc1OCC(=O)N(C)CC(=O)NCCc1ccc(Cl)cc1N3

>  <Val>
0.501

$$$$
>  <Compound>
COCCCNCC(=O)N1CCOc2cc3c(ncnc3cc2OC)Nc2cc(Cl)ccc2CCCNC(=O)C1

>  <Val>
0.398

$$$$
>  <Compound>
COc1cc2ncnc3c2cc1OCCCCC(=O)NC(C)(C)C(=O)NCc1ccc(Cl)cc1N3

>  <Val>
0.251

$$$$
>  <Compound>
COc1cc2ncnc3c2cc1OCCCCC(=O)NC(C(C)O)C(=O)NCc1ccc(Cl)cc1N3 (stereo not shown)

>  <Val>
0.126

$$$$
>  <Compound>
COc1cc2ncnc3c2cc1OCC(=O)NC(C)C(=O)NCCc1ccc(Cl)cc1N3 (stereo not shown)

>  <Val>
1

$$$$
>  <Compound>
COc1cc2ncnc3c2cc1OCC(=O)NCCCC(=O)NCCc1ccc(Cl)cc1N3

>  <Val>
0.0631

$$$$
>  <Compound>
Oc1cc2ncnc3c2cc1OCCCCCCOc1ccc(Br)cc1N3

>  <Val>
2.51

$$$$
>  <Compound>
COc1cc2ncnc3c2cc1OCCNC(=O)CN(C)Cc1cc(F)c(Cl)cc1N3

>  <Val>
0.631

$$$$
>  <Compound>
COc1cc2ncnc3c2cc1OCCCCCNCc1cc(F)c(Br)cc1N3

>  <Val>
0.0158

$$$$
>  <Compound>
COc1cc2ncnc3c2cc1OCCNC(=O)CNC(=O)Cc1ccc(Cl)cc1N3

>  <Val>
0.0501

$$$$
>  <Compound>
COc1cc2ncnc3c2cc1OCCN(CCN1CCOCC1)C(=O)CNC(=O)Cc1ccc(Cl)cc1N3

>  <Val>
0.398

$$$$
>  <Compound>
COc1cc2ncnc3c2cc1OCCCNC(=O)CNC(=O)Cc1ccc(Cl)cc1N3

>  <Val>
0.0158

$$$$
>  <Compound>
COc1cc2ncnc3c2cc1OCCCCCCCCCOc1ccc(Cl)cc1N3

>  <Val>
0.0398

$$$$
>  <Compound>
COc1cc2ncnc3c2cc1OCCCCOCCc1ccc(Cl)cc1N3

>  <Val>
0.01

$$$$
>  <Compound>
COC(=O)c1ccc2c(c1)Nc1ncnc3cc(OC)c(cc13)OCCCCCCO2

>  <Val>
0.0501

$$$$
>  <Compound>
COc1cc2ncnc3c2cc1OCCCCC(=O)NCCC(=O)NCc1ccc(Cl)cc1N3

>  <Val>
0.158

$$$$
>  <Compound>
COc1cc2ncnc3c2cc1OCC1CCN(CC1)CC(=O)NCCCc1ccc(Cl)cc1N3

>  <Val>
6.31

$$$$
>  <Compound>
COc1cc2ncnc3c2cc1OCC(=O)NC(CO)C(=O)NCCc1ccc(Cl)cc1N3 (stereo not shown)

>  <Val>
0.251

$$$$
>  <Compound>
COc1cc2ncnc3c2cc1OCCOCCOCCc1ccc(Cl)cc1N3

>  <Val>
0.02

$$$$
>  <Compound>
COc1cc2ncnc3c2cc1OCCCC(=O)NCCCC(=O)NCc1ccc(Cl)cc1N3

>  <Val>
0.0398

$$$$
>  <Compound>
COc1cc2ncnc3c2cc1OCCCCC(=O)NCCCC(=O)NCc1ccc(Cl)cc1N3

>  <Val>
0.1

$$$$
>  <Compound>
COc1cc2ncnc3c2cc1OCC(=O)NC(C(C)O)C(=O)NCc1ccc(Cl)cc1N3 (stereo not shown)

>  <Val>
0.251

$$$$
>  <Compound>
COc1cc2ncnc3c2cc1OCCCCCCOc1ccc(Br)cc1N3

>  <Val>
0.0251

$$$$
>  <Compound>
COc1cc2ncnc3c2cc1OCCCC(=O)NCC(=O)NCc1ccc(Cl)cc1N3

>  <Val>
0.0158

$$$$
>  <Compound>
COc1cc2ncnc3c2cc1OCCCCCNCCN(C)Cc1ccc(Cl)cc1N3

>  <Val>
0.2

$$$$
>  <Compound>
COc1cc2ncnc3c2cc1OCCCC=CCC(NC(=O)OC(C)(C)C)C(=O)NCc1ccc(Cl)cc1N3 (stereo not shown) [Compound 109]

>  <Val>
2

$$$$
>  <Compound>
COc1cc2ncnc3c2cc1OCCCCCN(C)Cc1ccc(Br)cc1N3

>  <Val>
0.0158

$$$$
>  <Compound>
COCCN1CCOc2cc3c(ncnc3cc2OC)Nc2cc(Cl)ccc2CC(=O)NCC1=O

>  <Val>
0.126

$$$$
